Each recorded value in this set is attributed to PubChem BioAssay (NCI).

Test system: K-562 leukemia
Experiment: NCI-60 one-dose screen, 48 h (100 = growth as untreated, 0 = no growth, -100 = all killed)
Details: 10 µM unless noted
About 83,000 compounds went through this panel and 20% of them were active in at least one assay; those are over-represented in the sample as a whole.
measured_endpoint: growth (%)
Report the figure in % without appending any unit label.

See these solved cases before continuing.
C[n+]1c(/C=C/c2ccc(N(CCCl)CCCl)cc2)sc2ccccc21 :: 15.3
O=C(O)c1ccc([S-])cc1.[Au+].c1ccc(CN2[CH-]N(Cc3ccccc3)C(c3ccccc3)=C2c2ccccc2)cc1 :: -16.9
C=CCCCN=C=S :: 59.8
Cc1ccc(C(Cc2ccccc2)NCCO)cc1 (stereo not given) :: 104
NC(=O)c1c(Br)n(C2OC(CO)C(O)C2O)c2ncnc(N)c12 (stereo not given) :: 1.67

Using known records, supply growth for CN1CC(CNC(=O)OCc2ccccc2)CC2c3cccc4c3c(cn4C)CC21 (stereo not given)
3.66

Respond only with growth recorded for "CC1(C)N=C(N)N=C(N)N1c1ccc(CCCCc2ccc(Cl)c(S(=O)(=O)F)c2)c(Cl)c1"
9.3
